// MIC collected for Klebsiella pneumoniae ATCC 10 031

{"compound": "CC1(C)S[C@@H]2[C@H](NC(=O)[C@H](NC(=O)N3CCNC3=O)c3ccccc3)C(=O)N2[C@H]1C(=O)O [J, azlocillin, reference compound]", "MIC": "32 µg/mL"}
{"compound": "CC1(C)S[C@@H]2[C@H](NC(=O)C(NC(=O)Nc3cnc(Nc4ccc(S(=O)(=O)NC5=NCCCN5)cc4)nc3O)c3ccc(O)cc3)C(=O)N2[C@H]1C(=O)O (some centres unmarked) [A]", "MIC": "2 µg/mL"}
{"compound": "CC1(C)S[C@@H]2[C@H](NC(=O)C(NC(=O)Nc3cnc(Nc4ccc(S(=O)(=O)NCC(N)=O)cc4)nc3O)c3ccc(O)cc3)C(=O)N2[C@H]1C(=O)O (some centres unmarked) [G]", "MIC": "2 µg/mL"}
{"compound": "CC1(C)S[C@@H]2[C@H](NC(=O)C(NC(=O)Nc3cnc(Nc4ccc(S(=O)(=O)NC5=NCCN5)cc4)nc3O)c3ccc(O)cc3)C(=O)N2[C@H]1C(=O)O (some centres unmarked) [B]", "MIC": "2 µg/mL"}
{"compound": "CC1(C)S[C@@H]2[C@H](NC(=O)C(NC(=O)Nc3cnc(Nc4ccc(S(=O)(=O)N5CCN(C=O)CC5)cc4)nc3O)c3ccc(O)cc3)C(=O)N2[C@H]1C(=O)O (some centres unmarked) [H]", "MIC": "2 µg/mL"}
{"compound": "CC1(C)S[C@@H]2[C@H](NC(=O)C(NC(=O)Nc3cnc(Nc4ccc(S(=O)(=O)NCCO)cc4)nc3O)c3ccc(O)cc3)C(=O)N2[C@H]1C(=O)O (some centres unmarked) [F]", "MIC": "2 µg/mL"}
{"compound": "CC1(C)S[C@@H]2[C@H](NC(=O)C(NC(=O)Nc3cnc(Nc4ccc(S(=O)(=O)NC5=NCCS5)cc4)nc3O)c3ccc(O)cc3)C(=O)N2[C@H]1C(=O)O (some centres unmarked) [C]", "MIC": "1 µg/mL"}
{"compound": "CC1(C)S[C@@H]2[C@H](NC(=O)C(NC(=O)Nc3cnc(Nc4ccc(S(=O)(=O)NC5=NCCO5)cc4)nc3O)c3ccc(O)cc3)C(=O)N2[C@H]1C(=O)O (some centres unmarked) [D]", "MIC": "2 µg/mL"}

Cited source: patent US4379784A
